- target-of-assay: Nek2 (Homo sapiens)
- Construct: purchased Invitrogen
- assay-info: Nek2 Caliper kinase inhibition assay
- Format: biochemical
- stated-conditions: Caliper assay, 30 μM ATP

[
  {
    "compound": "CN(C)CCNC(=O)Cc1cccc(Nc2nc(OCC3CCCCC3)c3nc[nH]c3n2)c1",
    "sign": "=",
    "IC50 [µM]": 1
  },
  {
    "compound": "O=[N+]([O-])c1cccc(Nc2nc(OCC3CCCCC3)c3nc[nH]c3n2)c1",
    "sign": ">",
    "IC50 [µM]": 50
  },
  {
    "compound": "CNC(=O)Cc1cccc(Nc2nc(OCC3CCCCC3)c3nc[nH]c3n2)c1",
    "sign": "=",
    "IC50 [µM]": 1.3
  },
  {
    "compound": "CN(C)[C@@H]1CCN(/C=C/c2nc(Nc3ccccc3)nc3[nH]cnc23)C1",
    "sign": "=",
    "IC50 [µM]": 3
  },
  {
    "compound": "CN(C)CCCCNC(=O)Cc1cccc(Nc2nc(OCC3CCCCC3)c3nc[nH]c3n2)c1",
    "sign": "=",
    "IC50 [µM]": 0.7
  },
  {
    "compound": "O=C(Cc1cccc(Nc2nc(OCC3CCCCC3)c3nc[nH]c3n2)c1)NCCCn1ccnc1",
    "sign": "=",
    "IC50 [µM]": 6.13
  },
  {
    "compound": "CCC(C)Oc1nc(Nc2cccc(CC(=O)NCCCN(C)C)c2)nc2[nH]cnc12 (racemic)",
    "sign": "=",
    "IC50 [µM]": 4.9
  },
  {
    "compound": "O=C(Cc1cccc(Nc2ncc3nc[nH]c3n2)c1)NCCCn1ccnc1",
    "sign": "=",
    "IC50 [µM]": 5.9
  },
  {
    "compound": "O=S(=O)(Cc1cccc(Nc2nc(OCC3CCCCC3)c3nc[nH]c3n2)c1)N1CCNCC1",
    "sign": "=",
    "IC50 [µM]": 2.6
  },
  {
    "compound": "CC(=O)Nc1cccc(Nc2nc(OCC3CCCCC3)c3nc[nH]c3n2)c1",
    "sign": "=",
    "IC50 [µM]": 8.3
  },
  {
    "compound": "C(=C\\N1CCCC1)/c1nc(Nc2ccccc2)nc2[nH]cnc12",
    "sign": "=",
    "IC50 [µM]": 0.34
  },
  {
    "compound": "O=C(Cc1cccc(Nc2nc(OCC3CCCCC3)c3nc[nH]c3n2)c1)NCCCO",
    "sign": "=",
    "IC50 [µM]": 1.3
  },
  {
    "compound": "Nc1ccc(Nc2nc(OCC3CCCCC3)c3[nH]cnc3n2)cc1",
    "sign": "=",
    "IC50 [µM]": 6.3
  },
  {
    "compound": "O=C(Cc1cccc(Nc2nc(OCC3CCCCC3)c3nc[nH]c3n2)c1)NC1CCCC1",
    "sign": "=",
    "IC50 [µM]": 4.1
  },
  {
    "compound": "CCOc1nc(Nc2cccc(CC(=O)NCCCN(C)C)c2)nc2[nH]cnc12",
    "sign": "=",
    "IC50 [µM]": 0.89
  },
  {
    "compound": "c1ccc(Nc2nc(OCC3CCCCC3)c3nc[nH]c3n2)cc1",
    "sign": "=",
    "IC50 [µM]": 22
  },
  {
    "compound": "O=C(NCCN1CCCCC1)Nc1ccc(Nc2nc(OCC3CCCCC3)c3nc[nH]c3n2)cc1",
    "sign": "=",
    "IC50 [µM]": 1.1
  },
  {
    "compound": "NS(=O)(=O)c1ccc(Nc2nc(OCC3CCCCC3)c3nc[nH]c3n2)cc1",
    "sign": "=",
    "IC50 [µM]": 12
  }
]

* * *

Reported inhibition at 50 µM by item:
- target-of-assay: Nek2 (Homo sapiens, UniProt P51955)
- Construct: purchased Invitrogen
- Sequence (P51955 whole entry): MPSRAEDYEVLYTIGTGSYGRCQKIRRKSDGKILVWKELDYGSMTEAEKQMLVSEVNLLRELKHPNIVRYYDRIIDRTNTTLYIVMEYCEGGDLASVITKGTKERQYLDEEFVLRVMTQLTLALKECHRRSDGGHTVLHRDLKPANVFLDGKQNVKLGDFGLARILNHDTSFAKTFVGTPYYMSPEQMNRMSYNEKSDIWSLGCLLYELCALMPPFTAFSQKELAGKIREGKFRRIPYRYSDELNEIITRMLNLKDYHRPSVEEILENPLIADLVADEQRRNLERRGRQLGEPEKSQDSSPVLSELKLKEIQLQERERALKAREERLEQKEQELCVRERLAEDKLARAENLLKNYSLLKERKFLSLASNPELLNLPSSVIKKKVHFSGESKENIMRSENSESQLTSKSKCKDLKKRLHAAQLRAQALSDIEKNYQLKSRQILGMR
- assay-info: Nek2 Caliper kinase inhibition assay
- Format: biochemical
- stated-conditions: @ 50 μM compound; 30 μM ATP
endpoint-name: inhibition at 50 µM (%)

[
  {
    "molecule": "CCCNC(=O)Cc1cccc(Nc2nc(OCC3CCCCC3)c3nc[nH]c3n2)c1",
    "test-result": 82
  },
  {
    "molecule": "O=C(Nc1ccc(Nc2nc(OCC3CCCCC3)c3nc[nH]c3n2)cc1)c1ccncc1",
    "test-result": 51
  },
  {
    "molecule": "CN(C(=O)Cc1cccc(Nc2nc(OCC3CCCCC3)c3nc[nH]c3n2)c1)C1CCCCC1",
    "test-result": 26
  },
  {
    "molecule": "NC(=S)c1cccc(Nc2nc(OCC3CCCCC3)c3nc[nH]c3n2)c1",
    "test-result": 46
  }
]

* * *

Measured melting point values are reported for all entries that follow.
endpoint-name: melting point

[
  {
    "molecule": "O=C(Cc1cccc(Nc2nc(OCC3CCCCC3)c3nc[nH]c3n2)c1)NCCCO [Compound 40]",
    "test-result": "132 to 133 °C"
  },
  {
    "molecule": "O=C(O)c1cccc(Nc2nc(OCC3CCCCC3)c3nc[nH]c3n2)c1 [Compound 23]",
    "test-result": "182 to 184 °C (dec.)"
  },
  {
    "molecule": "CNC(=O)Cc1cccc(Nc2nc(OCC3CCCCC3)c3nc[nH]c3n2)c1 [Compound 15]",
    "test-result": "176 to 177 °C"
  },
  {
    "molecule": "CN(C)CCNC(=O)Cc1cccc(Nc2nc(OCC3CCCCC3)c3nc[nH]c3n2)c1 [Compound 43]",
    "test-result": "161 to 162 °C"
  }
]

* * *

[
  {
    "molecule": "O=C(Cc1cccc(Nc2nc(OCC3CCCCC3)c3nc[nH]c3n2)c1)NC1CCCCC1",
    "melting point": "226 to 227 °C"
  },
  {
    "molecule": "NC(=O)Nc1cccc(Nc2nc(OCC3CCCCC3)c3nc[nH]c3n2)c1",
    "melting point": "193 to 194 °C"
  },
  {
    "molecule": "COc1ccc(CNS(=O)(=O)Cc2cccc(Nc3nc(OCC4CCCCC4)c4nc[nH]c4n3)c2)cc1",
    "melting point": "118 to 119 °C"
  },
  {
    "molecule": "CN(C)[C@@H]1CCN(/C=C/c2nc(Nc3ccccc3)nc3[nH]cnc23)C1",
    "melting point": "136 to 138 °C"
  },
  {
    "molecule": "CN(C)S(=O)(=O)c1cccc(Nc2nc(OCC3CCCCC3)c3nc[nH]c3n2)c1",
    "melting point": "143 to 145 °C"
  },
  {
    "molecule": "CC(C)CNC(=O)Cc1cccc(Nc2nc(OCC3CCCCC3)c3nc[nH]c3n2)c1",
    "melting point": "144 to 145 °C"
  },
  {
    "molecule": "CCC(C)Oc1nc(Nc2cccc(CC(=O)NCCCN(C)C)c2)nc2[nH]cnc12 (racemic)",
    "melting point": "97 to 98 °C"
  }
]

* * *

- target-of-assay: Nek2 (Homo sapiens, UniProt P51955)
- Construct: purchased Invitrogen
- assay-info: Nek2 Caliper kinase inhibition assay
- Format: biochemical
- stated-conditions: Caliper assay, 30 μM ATP

[
  {
    "molecule": "O=[N+]([O-])c1ccc(Nc2nc(OCC3CCCCC3)c3nc[nH]c3n2)cc1",
    "sign": ">",
    "IC50 [µM]": 50
  },
  {
    "molecule": "CN(C)CCCCNC(=O)c1cccc(Nc2nc(OCC3CCCCC3)c3nc[nH]c3n2)c1",
    "sign": "=",
    "IC50 [µM]": 3.8
  },
  {
    "molecule": "NC(=O)Nc1cccc(Nc2nc(OCC3CCCCC3)c3nc[nH]c3n2)c1",
    "sign": "=",
    "IC50 [µM]": 3.6
  },
  {
    "molecule": "CN(C)CCCNC(=O)Nc1ccc(Nc2nc(OCC3CCCCC3)c3nc[nH]c3n2)cc1",
    "sign": "=",
    "IC50 [µM]": 1.2
  },
  {
    "molecule": "O=C(NCCN1CCCCC1)Nc1ccc(Nc2ncc3nc[nH]c3n2)cc1",
    "sign": "=",
    "IC50 [µM]": 4.5
  }
]
